Taken from paper PMC6016062.

- Measured Target: T1, human O-GlcNAc transferase (human, UniProt O15294 1-1046)
- T1 sequence (looked up): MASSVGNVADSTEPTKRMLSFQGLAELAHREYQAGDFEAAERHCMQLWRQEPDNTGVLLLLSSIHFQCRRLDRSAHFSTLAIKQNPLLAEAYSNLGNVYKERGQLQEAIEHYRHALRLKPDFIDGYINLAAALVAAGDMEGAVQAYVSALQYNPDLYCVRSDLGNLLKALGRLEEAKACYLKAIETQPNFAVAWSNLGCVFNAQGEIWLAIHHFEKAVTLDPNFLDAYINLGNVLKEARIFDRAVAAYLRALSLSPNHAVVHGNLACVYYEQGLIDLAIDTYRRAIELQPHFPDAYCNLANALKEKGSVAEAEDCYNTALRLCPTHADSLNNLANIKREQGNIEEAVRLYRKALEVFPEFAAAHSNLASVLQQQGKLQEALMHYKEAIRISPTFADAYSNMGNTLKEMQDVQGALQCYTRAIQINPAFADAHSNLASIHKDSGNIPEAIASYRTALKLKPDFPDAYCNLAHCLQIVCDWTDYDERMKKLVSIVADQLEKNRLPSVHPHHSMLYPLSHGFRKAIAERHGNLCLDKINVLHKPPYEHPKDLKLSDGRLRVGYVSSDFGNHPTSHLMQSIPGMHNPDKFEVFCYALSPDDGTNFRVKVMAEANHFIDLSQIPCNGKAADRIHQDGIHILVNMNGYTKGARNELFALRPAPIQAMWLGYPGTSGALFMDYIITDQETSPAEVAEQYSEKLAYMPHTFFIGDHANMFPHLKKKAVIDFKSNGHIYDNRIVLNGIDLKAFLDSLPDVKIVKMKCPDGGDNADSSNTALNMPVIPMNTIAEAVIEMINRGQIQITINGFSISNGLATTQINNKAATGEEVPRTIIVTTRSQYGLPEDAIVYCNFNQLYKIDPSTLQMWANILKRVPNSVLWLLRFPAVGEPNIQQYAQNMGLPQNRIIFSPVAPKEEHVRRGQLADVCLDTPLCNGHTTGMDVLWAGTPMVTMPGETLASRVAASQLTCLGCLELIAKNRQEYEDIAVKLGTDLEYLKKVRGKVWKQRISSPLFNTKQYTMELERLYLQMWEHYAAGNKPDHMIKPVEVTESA
- Experiment Summary: fluorescence polarisation; direct binding of the fluorescein-labeled conjugates 17 and 18 to hOGT
- Condition Set: both partners purified
No end group written: not given here. Floc = 5(6)-fluorescein carboxamide; Ahx = NCCCCCC(=O)O
Observation Type: pKd
# reply with the number alone; pKd is -log10 of concentration in mol/L

Would you kindly share the measured pKd for {Floc-Ahx}-VTPVC(S‑propyl‑UDP)TA [5(6)-fluorescein carboxamide (Floc) labeled S-linked UDP-peptide conjugate 17] ?
5.80
